# System: HS 578T breast
# Protocol summary: NCI tumour cell line growth inhibition, 48 h; in the data active means GI50 below about 0.43 µM; inactive means the rest
Classes used: active, inactive

{"Compound": "Cc1nn2c(-c3nc4cc(Cl)c(Cl)cc4[nH]3)c(-c3ccc(F)cc3)nc2s1", "Class": "inactive"}
{"Compound": "CN(C)CCS(=O)(=O)Nc1cc(-c2ccc3ncnc(Nc4ccc(F)c(Cl)c4)c3c2)cnc1Cl", "Class": "active"}
{"Compound": "Cc1ccc(C(=O)N2C/C(=C/c3ccccc3)C(=O)/C(=C/c3ccccc3)C2)cc1", "Class": "inactive"}
{"Compound": "CN(c1ccc(NC(=O)NCCN2CCOCC2)cc1)c1ccnc(Nc2ccc(CS(C)(=O)=O)cc2)n1", "Class": "inactive"}
{"Compound": "CC1(C)N=C(N)N=C(N)N1c1ccc(OCCCCNC(=O)Nc2cccc(S(=O)(=O)F)c2)c(Cl)c1", "Class": "inactive"}
{"Compound": "O=S(=O)(NCCCNc1nccc(-c2c(-c3cccc(F)c3)nc3occn23)n1)c1cccc2ccccc12", "Class": "inactive"}
{"Compound": "CCN(CC)Cc1cc(Nc2cc(C(F)(F)F)c(C#N)c3nc4ccccc4n23)ccc1O", "Class": "inactive"}
{"Compound": "O=C(/C=C/c1cccc(Oc2ccc(Cl)cc2)c1)c1ccccc1", "Class": "inactive"}
{"Compound": "C=C(Cl)C(Cl)(CBr)CCC(Br)C(C)(C)Cl (centres undefined)", "Class": "inactive"}
{"Compound": "CCOc1cc(/C=C/C(=O)CC(=O)/C=C/c2ccc(OC(=O)CNCCN(CC)CC)c(OCC)c2)ccc1OC(=O)CNCCN(CC)CC", "Class": "inactive"}
{"Compound": "CC1=NN(c2nc(N)nc(/C=C\\c3ccccc3)n2)C(C)(C)C1", "Class": "inactive"}
{"Compound": "CCN(CC)CCS(=O)(=O)CCNc1ccnc2cc(Cl)ccc12", "Class": "inactive"}
{"Compound": "Cc1ccc(NC(=O)c2ccc(NC3=C(Cl)C(=O)N(Cc4ccccc4)C3=O)cc2)cc1Cl", "Class": "inactive"}
{"Compound": "C=CC[PH+](c1ccccc1)c1ccccc1.C=CC[PH+](c1ccccc1)c1ccccc1.[Pt+2].[S-]c1ncccn1.[S-]c1ncccn1", "Class": "inactive"}

* * *

# System: HT29 colon
# Protocol summary: NCI tumour cell line growth inhibition, 48 h
List of TGI values.

{"Molecule": "CCCC(=O)OC1C(C2COC(C)(C)O2)OC2OC(C)(C)OC21 (stereo not given)", "TGI": "> 100 µM"}
{"Molecule": "Cn1c(CC(O)c2nc3ccccc3n2C)nc2ccccc21 (stereo not given)", "TGI": "> 54.3 µM"}
{"Molecule": "c1csc(C(NC2=NCCO2)C2CC2)c1 (stereo not given)", "TGI": "> 100 µM"}
{"Molecule": "CC(C)CCCC(C)[C@H]1CCC2[C@@H]3CCC4Cc5nc6c(nc5C[C@]4(C)C3CC[C@@]21C)CC1CC[C@@H]2C(CC[C@@]3(C)C2CC[C@@H]3O)[C@@]1(C)C6 (stereo not given in full)", "TGI": "> 100 µM"}
{"Molecule": "CCOC(=O)C1=CSC2=NC3=C(CCC/C3=C\\c3cc(OC)c(OC)c(OC)c3)C(c3cc(OC)c(OC)c(OC)c3)N12 (stereo not given)", "TGI": "> 100 µM"}
{"Molecule": "O=C(/C=C/c1ccc(Cl)cc1)c1ccc(Cl)s1", "TGI": "> 100 µM"}
{"Molecule": "CCOC(=O)C1=C(C)N(CC(C)C)C2(O)C(OC)CC(=O)C3C(=O)N(c4ccccc4)C(=O)C132 (stereo not given)", "TGI": "57.1 µM"}
{"Molecule": "COc1cc(S(=O)(=O)Nc2ccc(-c3csc(/N=C\\c4cccs4)n3)cc2)ccc1Cl", "TGI": "> 100 µM"}
{"Molecule": "O=c1c2cccc3cccc(c4n1CCCN=4)c32", "TGI": "> 100 µM"}
{"Molecule": "O=C1c2ccoc2C(=O)c2oc(=O)ccc21", "TGI": "> 78.8 µM"}
